IC50 values for the compounds below.
Assay: Cytotoxicity against wild type mouse IC2 cells after 48 hrs by MTT assay
Conditions: IC2, 48 h

>  <compoundStructureString>
CNC1=C/C(=N\CCO)c2ccncc2C1=O

>  <IC50 (µg/mL)>
0.1

$$$$
>  <compoundStructureString>
CNC1=C(Br)C(=O)c2ccncc2C1=O

>  <IC50 (µg/mL)>
0.28

$$$$
>  <compoundStructureString>
CNC1=CC(=N)c2ccncc2C1=O

>  <IC50 (µg/mL)>
0.03

$$$$
>  <compoundStructureString>
O=C1C=C(NCCO)C(=O)c2cnccc21

>  <IC50 (µg/mL)>
1.67

$$$$
>  <compoundStructureString>
CNC1=C(Cl)C(=O)c2ccncc2C1=O

>  <IC50 (µg/mL)>
0.22

$$$$
>  <compoundStructureString>
CNC1=CC(=O)c2ccncc2C1=O

>  <IC50 (µg/mL)>
0.34

$$$$
